Listed here: items and their measured activation.
Target: Thyrotropin-releasing hormone receptor (Homo sapiens) (UniProt P34981)
Sequence (P34981 whole entry, looked up): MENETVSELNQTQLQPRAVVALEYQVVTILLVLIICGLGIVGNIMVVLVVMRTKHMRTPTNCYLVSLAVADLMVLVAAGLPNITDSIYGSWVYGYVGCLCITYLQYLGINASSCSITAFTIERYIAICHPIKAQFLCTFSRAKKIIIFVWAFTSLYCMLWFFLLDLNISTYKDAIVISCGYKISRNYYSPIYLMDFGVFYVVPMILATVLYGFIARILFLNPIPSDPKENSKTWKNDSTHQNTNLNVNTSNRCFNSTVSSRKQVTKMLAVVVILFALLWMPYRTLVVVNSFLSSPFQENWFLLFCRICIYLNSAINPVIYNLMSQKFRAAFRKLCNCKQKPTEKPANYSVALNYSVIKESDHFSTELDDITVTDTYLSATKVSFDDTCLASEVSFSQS
Assay: qHTS for Small Molecule Agonists and Allosteric Enhancers of Human TRH Receptor: Primary Screen for Agonists. Note: 0% is about no effect.
Details: TRHR cells, calcium flux fluo-8, FDSS agonist mode; at 2 µM; stronger effect = higher value
The campaign covered roughly 360,000 compounds. About 650 (0.18%) were called active. The entries come from a sample that favours actives as a whole.

compound	activation [%]
COc1cc(/C=C(\C#N)c2nc3c(s2)CC(C)CC3)ccc1O (centres undefined)	38.3
COc1cccc2c1cc1c(=O)n(CC(=O)N3CCN(c4ccccc4)CC3)nc(C)n12	0.0688
O=C(CCSCc1cccc(F)c1)NCc1ccccc1	-0.592
COc1ccc(-c2nc(Cn3c(=O)cc(C)c4c(C)nn(-c5ccccc5)c43)c(C)o2)cc1OC	-0.897
O=C(CCCCCn1c(=O)[nH]c2ccccc2c1=O)NCCc1c[nH]c2ccccc12	-0.335
CN(Cc1ccccc1)C(=O)c1cn(C)c2ccc(S(=O)(=O)N3CCCCC3)cc2c1=O	0.115
Nc1ccc2nc3c(=O)[nH]c(=S)[nH]c3nc2c1	35.9
CCOC(=O)c1ccc2[nH]c3c(c2c1)CCCC3NC=O (centres undefined)	0.37
CCOC(=O)c1c(C)oc2ccc(N(C(=O)c3ccncc3)S(=O)(=O)c3ccc(CC)cc3)cc12	0.327
Cc1ccc(C(=O)NC2CCN(C#N)CC2)cc1	0.438
COc1cc(/C=C(\C#N)c2nc3ccccc3[nH]2)ccc1O	33.3
CCN(CC)c1ccc2cc(C(N)=O)/c(=N\NC(=O)c3ccncc3)oc2c1	81.7
CCOC(=O)c1cc2cc(C)ccc2[nH]1	0.835
N#C/C(=C\c1ccccc1F)c1nc2ccccc2c(=O)[nH]1	3.32
CCOc1ccc(CNC(=O)Cn2cc3c(n2)-c2c(oc(C(=O)N4CCCC4)c2C)CC3)cc1	-0.1
Cc1noc(/C=C/N(C)C)c1S(=O)(=O)N1CCCC(C(=O)Nc2cccc(F)c2)C1 (centres undefined)	-0.115
CCOc1ccc(/C=C(\C#N)c2nc3ccccc3c(=O)[nH]2)cc1OC	2.27
O=C(O)c1ccc(CSc2nc3cccnc3n2Cc2cccc(F)c2)cc1	-0.0878
CN1CCOc2cc(S(=O)(=O)N3CCN(S(=O)(=O)c4c(F)cccc4F)CC3)cnc21	-0.448
CC1(C(=O)NCCc2c[nH]c3ccccc23)C=CC2(CCCCC2)N1C(=O)c1ccccc1 (centres undefined)	0.212
N#C/C(=C/c1ccc(N2CCCCC2)o1)C(=O)NCCc1c[nH]c2ccccc12	43.2
CCOC(=O)c1[nH]c2ccc(C)cc2c1N=C(C)N(C)C	32.1
C/C(=N\NC(N)=S)c1ccncc1	0.334
Cc1ccc(Cn2ncc3c4sc(C)cc4n(C)c3c2=O)c(C)c1	0.195

Origin of measurements: PubChem BioAssay AID493084
